# Tested on: Aspergillus fumigatus
# Measurement notes: Antifungal activity measured against Aspergillus fumigatus
# Assay type: functional
Catalogue of MIC readings, one per entry.
Experimental readout: MIC

CN(C/C=C/c1ccccc1)Cc1c2c(cc3c1CCC3)CCC2: > 100 µg/mL
CN(C/C=C/c1ccccc1)Cc1c(O)ccc2ccccc12: > 100 µg/mL
CN(C/C=C/c1ccncc1)Cc1cccc2ccccc12: > 100 µg/mL
CCOC(=O)/C=C/CN(C)Cc1cccc2ccccc12: > 100 µg/mL
CN(C/C=C/c1ccccc1)Cc1ccc(Cl)c2ccccc12: > 100 µg/mL
CN(C/C=C/C#N)Cc1cccc2ccccc12: > 100 µg/mL
CN(CCC(O)c1ccccc1)Cc1cccc2ccccc12 (stereo unspecified): > 100 µg/mL
CN(C/C=C/c1ccsc1)Cc1cccc2ccccc12: 50 µg/mL
C/C=C/CN(C)Cc1cccc2ccccc12: > 100 µg/mL
CN(C/C=C/c1ccccc1Cl)Cc1cccc2ccccc12: > 100 µg/mL
CN(C/C=C/c1ccccc1)C(=O)c1cccc2ccccc12: 12.5 µg/mL
C(=C\c1ccccc1)/CNCc1cccc2ccccc12: > 100 µg/mL
CN(C/C=C/c1ccccc1)Cc1cccc2c1CCCC2: > 100 µg/mL
CN(C/C=C/c1ccccc1)CC1CCCc2ccccc21 (stereo unspecified): > 100 µg/mL
C=CCN(C/C=C/c1ccccc1)Cc1cccc2ccccc12: 100 µg/mL
CN(CC(=O)c1ccccc1)Cc1cccc2ccccc12: > 100 µg/mL
CN(C/C=C/CO)Cc1cccc2ccccc12: > 100 µg/mL
CCN(C/C=C/c1ccccc1)Cc1cccc2ccccc12: 100 µg/mL
CC(=O)N(C/C=C/c1ccccc1)Cc1cccc2ccccc12: > 100 µg/mL
CN(C/C=C/c1ccccn1)Cc1cccc2ccccc12: > 100 µg/mL
CN(C/C=C/c1cccs1)Cc1cccc2ccccc12: 100 µg/mL
CN(C/C=C/C1=CCCCC1)Cc1cccc2ccccc12: 12.5 µg/mL
CN(C/C=C/c1ccccc1)C1CCCc2ccccc21 (stereo unspecified): > 100 µg/mL
CN(C/C=C/c1ccccc1)Cc1ccnc2ccccc12: > 100 µg/mL
C(=C\c1ccccc1)/CSCc1cccc2ccccc12: > 100 µg/mL
CN(CCc1ccccc1)Cc1cccc2ccccc12: > 100 µg/mL

These measurements were taken from ChEMBL document CHEMBL1123199.
